- target.system: T1, ferroportin endogenously expressed on T47D human breast carcinoma cells (human, UniProt Q9NP59 1-571)
- T1 sequence (looked up): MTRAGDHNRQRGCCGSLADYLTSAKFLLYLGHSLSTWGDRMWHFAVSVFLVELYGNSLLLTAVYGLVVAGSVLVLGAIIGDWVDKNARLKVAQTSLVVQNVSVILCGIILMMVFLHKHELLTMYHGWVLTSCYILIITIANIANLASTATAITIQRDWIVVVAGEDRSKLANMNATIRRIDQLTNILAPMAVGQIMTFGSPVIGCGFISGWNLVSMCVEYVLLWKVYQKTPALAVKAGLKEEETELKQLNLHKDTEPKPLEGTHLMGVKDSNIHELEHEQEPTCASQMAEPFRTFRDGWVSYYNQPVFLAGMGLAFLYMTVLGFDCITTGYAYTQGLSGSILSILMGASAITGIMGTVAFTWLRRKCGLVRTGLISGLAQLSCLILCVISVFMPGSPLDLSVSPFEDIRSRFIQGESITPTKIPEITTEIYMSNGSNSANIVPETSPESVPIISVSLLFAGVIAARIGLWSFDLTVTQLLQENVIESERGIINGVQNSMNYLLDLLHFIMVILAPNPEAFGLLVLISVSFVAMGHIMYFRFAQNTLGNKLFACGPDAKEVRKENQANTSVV
- method.notes: cell-based or functional assay
Positions of bridges follow the written chain, without caps; N, C: chain ends. Non-standard residues stand in square brackets, D forms with d. Groups on a side chain read outwards from the residue. *: point of attachment. PEG12 = NCCOCCOCCOCCOCCOCCOCCOCCOCCOCCOCCOCCOCCC(=O)O; Dip = N[C@H](C(=O)O)C(c1ccccc1)c1ccccc1; Palmitoyl = CCCCCCCCCCCCCCCC(=O)*; β3hF = N[C@H](CC(=O)O)Cc1ccccc1; Isovaleryl = CC(C)CC(=O)*
attribute.measured: IC50: T47D Internalization MSA (nM)

For orientation, consider the following solved cases.
binder	reported.value
Isovaleryl-ETH[Dip]PCIK([PEG12-Palmitoyl])[β3hF]K(PEG30K)RC-NH2 (disulfide 6-12 (inferred)) [Compound 294]	7.19
XETHXXCIXXXC (Isovaleric Acid-E-T-H-[Dpa]-[Npc]-C-I-[Lys(1PEG2_1PEG2_IsoGlu_C18_Diacid)]-[bhPhe]-[(D)Lys]-C-NH2) [Compound 272]	137
Isovaleryl-ETH[Dip]PCIK([PEG12-Palmitoyl])[β3hF]K(PEG40KB)RC-NH2 (disulfide 6-12 (inferred)) [Compound 295]	9.22

P: XETHXPCIXXXC (not fully specified; Isovaleric Acid-E-T-H-[Dpa]-P-C-I-[Lys(1PEG2_1PEG2_Ahx_C18_Diacid)]-[bhPhe]-[(D)Lys(PEG7_OMe)]-C-NH2) [Compound 256]
Q: XETHXPCIXXXXC (Isovaleric Acid-E-T-H-[Dpa]-P-[Cys]-I-[(D)Lys]-[bhPhe]-[Lys(Ahx_Palm)]-[(D)Lys]-[Cys]-NH2) [Compound 6]
[Q] Compare reported IC50: T47D Internalization MSA values for P and Q . Which is lower? To answer, give the label that identifies your chosen option.
[A] Q
